EXPERIMENT: Cytotoxic activity (MTT) against normal periodontal ligament fibroblast HPLF
Type: cell-based
TEST PARAMETERS: human, HPLF normal periodontal ligament fibroblasts, HPLF normal oral cells, 48 h incubation
OBSERVABLE: CC50 at 48 h (µM)
The figure you give is taken to be in µM; do not add the unit.

Consider the molecule "CC(C)c1ccc(C=CC(=O)c2ccc3[nH]c(=O)oc3c2)cc1" . State its measured CC50 at 48 h.
76

Consider the molecule "O=C(C=Cc1ccc(OCc2ccccc2)cc1)c1ccc2[nH]c(=O)oc2c1" . State its measured CC50 at 48 h.
32.7

Consider the molecule "CN(C)c1ccc(C=CC(=O)c2ccc3[nH]c(=O)oc3c2)cc1" . State its measured CC50 at 48 h.
70

Consider the molecule "O=C(C=Cc1cccc(O)c1)c1ccc2[nH]c(=O)oc2c1" . State its measured CC50 at 48 h.
50.3

Consider the molecule "O=C(C=Cc1ccc(C(F)(F)F)cc1)c1ccc2[nH]c(=O)oc2c1" . State its measured CC50 at 48 h.
26.3

Consider the molecule "O=C(C=Cc1ccccc1)c1ccc2[nH]c(=O)oc2c1" . State its measured CC50 at 48 h.
83.3

Consider the molecule "COc1ccc(C=CC(=O)c2ccc3[nH]c(=O)oc3c2)cc1" . State its measured CC50 at 48 h.
84

Consider the molecule "Cc1ccc(C=CC(=O)c2ccc3[nH]c(=O)oc3c2)cc1" . State its measured CC50 at 48 h.
105

====

Ki values recorded for hCA I (Homo sapiens, UniProt P00915)
The figure you give is taken to be in µM; do not add the unit.

Find the measured Ki of "O=C(C=Cc1ccccc1)c1ccc2[nH]c(=O)oc2c1" with hCA I (Homo sapiens, UniProt P00915) as test system.
Sequence (P00915 whole entry): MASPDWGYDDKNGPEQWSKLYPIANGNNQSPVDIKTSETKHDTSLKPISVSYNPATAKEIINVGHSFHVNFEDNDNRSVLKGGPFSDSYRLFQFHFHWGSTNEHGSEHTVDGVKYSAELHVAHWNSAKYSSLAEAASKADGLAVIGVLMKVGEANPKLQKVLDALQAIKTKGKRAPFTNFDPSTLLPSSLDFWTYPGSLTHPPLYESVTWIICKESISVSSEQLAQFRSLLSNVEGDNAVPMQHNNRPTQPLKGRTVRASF
70.6

Find the measured Ki of "COc1ccc(C=CC(=O)c2ccc3[nH]c(=O)oc3c2)cc1" with hCA I (Homo sapiens, UniProt P00915) as test system.
30.5

Find the measured Ki of "Cc1ccc(C=CC(=O)c2ccc3[nH]c(=O)oc3c2)cc1" with hCA I (Homo sapiens, UniProt P00915) as test system.
38.8

Find the measured Ki of "O=C(C=Cc1ccc(C(F)(F)F)cc1)c1ccc2[nH]c(=O)oc2c1" with hCA I (Homo sapiens, UniProt P00915) as test system.
30.8

Find the measured Ki of "O=C(C=Cc1ccc(OCc2ccccc2)cc1)c1ccc2[nH]c(=O)oc2c1" with hCA I (Homo sapiens, UniProt P00915) as test system.
28.4

====

Provide the recorded Ki for the entries that follow.
TARGET OR TEST SYSTEM: hCA II (Homo sapiens)
The figure you give is taken to be in µM; do not add the unit.

Consider the molecule "COc1ccc(C=CC(=O)c2ccc3[nH]c(=O)oc3c2)cc1" . State its measured Ki.
36.2

Consider the molecule "Cc1ccc(C=CC(=O)c2ccc3[nH]c(=O)oc3c2)cc1" . State its measured Ki.
32.1

Consider the molecule "CN(C)c1ccc(C=CC(=O)c2ccc3[nH]c(=O)oc3c2)cc1" . State its measured Ki.
10.8

Consider the molecule "O=C(C=Cc1ccc(C(F)(F)F)cc1)c1ccc2[nH]c(=O)oc2c1" . State its measured Ki.
19.2

====

OBSERVABLE: pIC50
When answering, recall that pIC50 equals minus log10 of the concentration in mol/L, and write that number alone.

Find the measured pIC50 of "O=C(C=Cc1cccc(O)c1)c1ccc2[nH]c(=O)oc2c1" with hCA II (Homo sapiens) as test system.
4.31

Find the measured pIC50 of "Cc1ccc(C=CC(=O)c2ccc3[nH]c(=O)oc3c2)cc1" with hCA II (Homo sapiens) as test system.
4.34

Find the measured pIC50 of "CN(C)c1ccc(C=CC(=O)c2ccc3[nH]c(=O)oc3c2)cc1" with hCA II (Homo sapiens) as test system.
4.53

Find the measured pIC50 of "O=C(C=Cc1ccc(OCc2ccccc2)cc1)c1ccc2[nH]c(=O)oc2c1" with hCA II (Homo sapiens) as test system.
4.74

Find the measured pIC50 of "O=C(C=Cc1ccc(C(F)(F)F)cc1)c1ccc2[nH]c(=O)oc2c1" with hCA II (Homo sapiens) as test system.
4.35

====

EXPERIMENT: Cytotoxic activity (MTT), mean over human normal oral cells
Format: cell-based
TEST PARAMETERS: HGF and HPLF normal oral fibroblasts (mean of both), read-out: CC50 Human normal oral cells Mean (B)
Provide the recorded CC50 at 48 h for the entries that follow.
The figure you give is taken to be in µM; do not add the unit.

Consider the compound "O=C(C=Cc1ccc(OCc2ccccc2)cc1)c1ccc2[nH]c(=O)oc2c1" . State its measured CC50 at 48 h.
65.3

Consider the compound "COc1ccc(C=CC(=O)c2ccc3[nH]c(=O)oc3c2)cc1" . State its measured CC50 at 48 h.
86.2

Consider the compound "O=C(C=Cc1cccc(O)c1)c1ccc2[nH]c(=O)oc2c1" . State its measured CC50 at 48 h.
52.9

Consider the compound "O=C(C=Cc1ccccc1)c1ccc2[nH]c(=O)oc2c1" . State its measured CC50 at 48 h.
77.2

Consider the compound "Cc1ccc(C=CC(=O)c2ccc3[nH]c(=O)oc3c2)cc1" . State its measured CC50 at 48 h.
96.5

Consider the compound "CN(C)c1ccc(C=CC(=O)c2ccc3[nH]c(=O)oc3c2)cc1" . State its measured CC50 at 48 h.
73.2

Consider the compound "O=C(C=Cc1ccc(C(F)(F)F)cc1)c1ccc2[nH]c(=O)oc2c1" . State its measured CC50 at 48 h.
25.5

Consider the compound "CC(C)c1ccc(C=CC(=O)c2ccc3[nH]c(=O)oc3c2)cc1" . State its measured CC50 at 48 h.
64.5

====

Provide the recorded IC50 for the entries that follow.
The figure you give is taken to be in µM; do not add the unit.

Find the measured IC50 of O=C(C=Cc1ccc(C(F)(F)F)cc1)c1ccc2[nH]c(=O)oc2c1 [Compound 4] with hCA I (Homo sapiens) as test system.
29.7

Find the measured IC50 of COc1ccc(C=CC(=O)c2ccc3[nH]c(=O)oc3c2)cc1 [Compound 3] with hCA I (Homo sapiens) as test system.
47.5

Find the measured IC50 of Cc1ccc(C=CC(=O)c2ccc3[nH]c(=O)oc3c2)cc1 [Compound 2] with hCA I (Homo sapiens) as test system.
33

Find the measured IC50 of CN(C)c1ccc(C=CC(=O)c2ccc3[nH]c(=O)oc3c2)cc1 [Compound 7] with hCA I (Homo sapiens) as test system.
40.3

Find the measured IC50 of O=C(C=Cc1ccccc1)c1ccc2[nH]c(=O)oc2c1 [Compound 1] with hCA I (Homo sapiens) as test system.
58.7

Find the measured IC50 of O=C(C=Cc1ccc(OCc2ccccc2)cc1)c1ccc2[nH]c(=O)oc2c1 [Compound 8] with hCA I (Homo sapiens) as test system.
57.7

====

OBSERVABLE: melting point

Consider the molecule "Cc1ccc(C=CC(=O)c2ccc3[nH]c(=O)oc3c2)cc1" . State its measured melting point.
258 to 260 °C

Consider the molecule "COc1ccc(C=CC(=O)c2ccc3[nH]c(=O)oc3c2)cc1" . State its measured melting point.
210 to 213 °C

Consider the molecule "O=C(C=Cc1cccc(O)c1)c1ccc2[nH]c(=O)oc2c1" . State its measured melting point.
277 to 279 °C

Consider the molecule "O=C(C=Cc1ccccc1)c1ccc2[nH]c(=O)oc2c1" . State its measured melting point.
230 to 232 °C

Consider the molecule "CN(C)c1ccc(C=CC(=O)c2ccc3[nH]c(=O)oc3c2)cc1" . State its measured melting point.
248 to 250 °C

Consider the molecule "O=C(C=Cc1ccc(OCc2ccccc2)cc1)c1ccc2[nH]c(=O)oc2c1" . State its measured melting point.
243 to 245 °C

Consider the molecule "CC(C)c1ccc(C=CC(=O)c2ccc3[nH]c(=O)oc3c2)cc1" . State its measured melting point.
220 to 222 °C

====

Provide the recorded CC50 at 48 h for the entries that follow.
EXPERIMENT: Cytotoxic activity (MTT) against normal gingival fibroblast HGF
Type: cell-based
TEST PARAMETERS: human, HGF normal gingival fibroblasts, HGF normal oral cells, 48 h incubation
The figure you give is taken to be in µM; do not add the unit.

Consider the molecule COc1ccc(C=CC(=O)c2ccc3[nH]c(=O)oc3c2)cc1 [Compound 3] . State its measured CC50 at 48 h.
88.3

Consider the molecule O=C(C=Cc1ccc(OCc2ccccc2)cc1)c1ccc2[nH]c(=O)oc2c1 [Compound 8] . State its measured CC50 at 48 h.
98

Consider the molecule CC(C)c1ccc(C=CC(=O)c2ccc3[nH]c(=O)oc3c2)cc1 [Compound 6] . State its measured CC50 at 48 h.
53

Consider the molecule COc1cccc2c1C(=O)c1c(O)c3c(c(O)c1C2=O)C[C@@](O)(C(=O)CO)C[C@@H]3O[C@H]1C[C@H](N)[C@H](O)[C@H](C)O1 [DXR, Doxorubicin, reference compound] . State its measured CC50 at 48 h.
0.7

Consider the molecule CN(C)c1ccc(C=CC(=O)c2ccc3[nH]c(=O)oc3c2)cc1 [Compound 7] . State its measured CC50 at 48 h.
76.3

Consider the molecule O=C(C=Cc1cccc(O)c1)c1ccc2[nH]c(=O)oc2c1 [Compound 5] . State its measured CC50 at 48 h.
55.4

Consider the molecule O=C(C=Cc1ccccc1)c1ccc2[nH]c(=O)oc2c1 [Compound 1] . State its measured CC50 at 48 h.
71

Consider the molecule Cc1ccc(C=CC(=O)c2ccc3[nH]c(=O)oc3c2)cc1 [Compound 2] . State its measured CC50 at 48 h.
87.7

Consider the molecule O=C(C=Cc1ccc(C(F)(F)F)cc1)c1ccc2[nH]c(=O)oc2c1 [Compound 4] . State its measured CC50 at 48 h.
24.7
